# Test: Effective permeability of the compound at pH 7.4 at 30 to 50 uM by PAMPA assay
# Assay type: ADME
# Condition: read-out: Peff
Measured Property: Papp (×10⁻⁶ cm/s)

Substance Smiles	Observed
C=C[C@H]1C[N@@]2CC[C@H]1C[C@@H]2[C@@H](O)c1ccnc2ccc(OC)cc12	11.5

====

The following compounds are shown together with reported MNTC values.
# Test: Cytotoxicity against mouse N2A cells assessed as maximal tolerant concentration
# Type: cell-based
# Condition: read-out: MTD

Substance Smiles	MNTC
Clc1ccc2c(NC3CCN(Cc4ccccc4)CC3)c3c(nc2c1)CCCC3	5 µM
COc1ccc2nc3cc(Cl)ccc3c(Nc3ccc(CN4CCCCC4)cc3)c2c1	5 µM
COc1ccc2nc3cc(Cl)ccc3c(Nc3ccc(N4CCN(C(C)=O)CC4)cc3)c2c1	5 µM
